Target: Gal(a1-3)Gal(b1-3)GlcNAc(b1-2)Man(a1-3)[Gal(a1-3)Gal(b1-3)GlcNAc(b1-2)Man(a1-6)]Man(b1-4)GlcNAc(b1-4)GlcNAc
Assay: glycan array binding signal (z-score within array); higher = stronger binding
Details: glycan notation: IUPAC condensed, linker removed
This excerpt belongs to a sample that is enriched for the strongest signals.
glycan array binding signal (z-score) listing for selected binders.
Note: the reply should be a number with no unit written.

Example results:
GH98CBM51-1 (Streptococcus pneumoniae) (protein) MTYLSDMDWSSATHGDIDKTKTVQKDAPFTTGNKGEHTKISLLTSDDKVKYFDKGIGTVADSPSVISYDISGQGFEKFETYIGIDQSANSSRSDHAVVDRIEIEIDGKVVYSSSVTNPEGFRYNTQAQFISVTIPQNAKKISLKSFAGEHTWGDEVVFADAKLIKTVST :: -0.171
SAG1 (Toxoplasma gondii), P13664 (protein) MSVSLHHFIISSGFLTSMFPKAVRRAVTAGVFAAPTLMSFLRCGVMASDPPLVANQVVTCPDKKSTAAVILTPTENHFTLKCPKTALTEPPTLAYSPNRQICPAGTTSSCTSKAVTLSSLIPEAEDSWWTGDSASLDTAGIKLTVPIEKFPVTTQTFVVGCIKGDDAQSCMVTVTVQARASSVVNNVARCSYGADSTLGPVKLSAEGPTTMTLVCGKDGVKVPQDNNQYCSGTTLTGCNEKSFKDILPKLTENPWQGNASSDKGATLTIKKEAFPAESKSVIIGCTGGSPEKHHCTVKLEFAGAAGSAKSAAGTASHVSIFAMVIGLIGSIAACVA :: 1.47

glycan array binding signal (z-score) reading for AFL6 (Aspergillus fumigatus), Q4WKJ1 (protein) MSFHLTAEDIRIEDGHRLVARLRNADGDLQDASIDLNTCLGNDNGHFQWDGVDFSHSAQDVHFAIEGGGQVPVLRAQLANQDGEFQDADVNLSERIENINGEFVFH : 0.406

Entry HA-61200 (Pseudomonas aeruginosa), Q02SP8_PSEAB (protein) MNKCYALVWNVSQGCWNVVSEGSRRRGKPAGAKAAIASVLALLGATALAPAYALPSGGTVVGGSANGEIHLSGGNSLSVNQKVDKLIANWDSFSVAAGERVIFNQPSSSSIALNRVIGTKASDIQGRIDANGQVFLVNPNGVLFGRGAQVNVGGLVASTLDITDAEFNGNSSRYRFTGPSTNGVLNHGGAITAAEGGSIALLGAQVDNRGTVLAQMGGVGLGAGSDLTLNFDGNKLLDIRVDAGVANALASNGGLLKADGGRVLMAARTANALLNTVVNSQGAIEARSLRGKNGRIVLDG ; glycan array binding signal (z-score) = 5.54

The reported measurements were obtained from the supplement of paper PMC8728848.
